The reported numbers originate from paper PMC4515083.

- target: ΔIBB-importin-α (importin-α1, KPNA2) (Mus musculus, UniProt P52293)
- Construct: modified pET-30a with TEV-cleavable His6/S-tag, tag cleaved; recombinant
- test-method-notes: direct ITC
- Type: binding
Below, each of the compounds is paired with its reported Kd value.
Report as a plain number; the unit mM is understood.

Worked cases, Kd given:
compound | parameter-measured | assay-value
NCCCC[C@H](NCc1cccc(-c2cccnc2)c1)C(N)=O [compound 16] | Kd | 1.3
NCCCC[C@H](NCc1ccc(-c2cccnc2)cc1)C(N)=O [compound 11] | Kd | 4
NCCCC[C@@H](NCc1ccc(-c2cccnc2)cc1)C(N)=O [compound 15] | Kd | 3.8

Please examine the following record next.
Consider NCCCC[C@H](NCc1ccc(-c2cccnc2)s1)C(N)=O [compound 17] . Its measured Kd is 0.9
